- Tested on: normal rat kidney epithelial cells (NRK)
- Assay Details: Cytotoxicity, WST-1 metabolic activity, NRK cells
- Type: cell-based
- Condition: Epithelial cell, 72 h incubation, metabolic activity (WST-1), three experiments
Measured Attribute: EC50

Q: What does the record list as EC50 for Cc1cc2c(c(C)c1CCOC1OC(CO)C(O)C(O)C1O)C(=O)C(C)(C)C2OC(=O)CC(=O)O [Compound 14, 3(R)-O-malonyl pteroside D] ?
A: > 200 µM
